# METHOD_DESCRIPTION: melting temperature; fluorescence melt of hairpins on a sequencing array, two-state fit, raised by 9.35 °C to match UV melts
# STATED_CONDITIONS: sodium 0.088 M
MEASUREMENT_KIND: Tm (°C)
Numbers only, in °C.

Below, each entry is followed by its recorded Tm result.
[[record]]
sequence_content = "GACGCAGGAAACTGCGCC (.(((((....))))).)"
measurement_kind = "Tm"
unit_tag = "°C"
measured_value = 50.2

[[record]]
sequence_content = "CGTCACGGAAACGTAACG (((.(((....))).)))"
measurement_kind = "Tm"
unit_tag = "°C"
measured_value = 41.6

[[record]]
sequence_content = "GGACGGCCGAAAGGCTCC (((..(((....))))))"
measurement_kind = "Tm"
unit_tag = "°C"
measured_value = 34.1

[[record]]
sequence_content = "CAAACCGAAAGGCTTG (((.((....)).)))"
measurement_kind = "Tm"
unit_tag = "°C"
measured_value = 38.4


List Tm for every entry below, keeping the order given.
1. GAGAACGAAAGTTTTCTC ((((((....)))..)))
2. GCTCAGCGAAAGCTCTGC ((..(((....)))..))
3. GGCGTCGAAAGACCTGCC ((((((....)))..)))
4. GTCCTAGCGAAAGCTGAC (((..(((....))))))

1: 38.4; 2: 28.8; 3: 46.6; 4: 31.5

List reported Tm for each of these sequences:
1. GCACGGCGAAAGCGGCGC ((.(.((....)).).))
2. GTCCAGGCGAAAGCCGAC (((..(((....))))))
3. GTGTCGGGAAACCGGTAC ((..(((....)))..))

1: 57; 2: 37; 3: 37.6

Provide the reported Tm of each entry below, same order.
1. GAGCGAGGAAACTCGCCC (.(((((....))))).)
2. GCGTGAGGAAACTCGTGC ((..(((....)))..))
3. GATCAAGGCCTTGATC ((((((....))))))
4. GACTACACGAAAGTGGTC (((..(((....))))))
5. GAAAGCGAAAGCTATTTC ((((((....)))..)))

[53.6, 38.9, 55, 40, 25.2]

====

# METHOD_DESCRIPTION: melting temperature; fluorescence melt of hairpins on a sequencing array, two-state fit, raised by 9.35 °C to match UV melts
# STATED_CONDITIONS: sodium 0.088 M
Simple rule here: Tm less than 40 °C is 1, otherwise -1.

[[record]]
sequence_content = "GCACAGCGAAAGCCCTGC (((..((....))..)))"
class = 1

[[record]]
sequence_content = "GATCGAGGAAACTCAATC (((.(((....))).)))"
class = 1

[[record]]
sequence_content = "GGGTTTTCGAAAGAACCC (((..(((....))))))"
class = -1

[[record]]
sequence_content = "GCAGCTTCGAAAGAATGC (((..(((....))))))"
class = 1

[[record]]
sequence_content = "GAGTAGCCGAAAGGCCTC (((..(((....))))))"
class = 1

[[record]]
sequence_content = "GACTGACGAAAGTCCGTC (((.(((....))).)))"
class = -1

[[record]]
sequence_content = "GACCTCCGAAAGGAAGTC (((.(((....))).)))"
class = -1

[[record]]
sequence_content = "GTATCCGGAAACAGATAC (((((.(....).)))))"
class = 1


Find out if reported Tm for GTGCCCCGAAAGGGTCAC (((.(((....))).))) is less than 40 °C -1

Please indicate whether the reported Tm of GATCACCTGGTGATC ((((((...)))))) is strictly below 40 °C. -1
